Biological target: Human Thrombin (Homo sapiens, UniProt P00734)
Assay: Inhibition of amidase activity of thrombin (Kass)
Assay type: biochemical
Counter-ions that a name gives are not always drawn.
measured.property: Kass Human Thrombin

NCc1ccc(CNC(=O)[C@@H]2CCCN2C(=O)[C@@H](CC2CCCCC2)NCC(=O)O)cc1 = 11

Find Kass Human Thrombin (Human Thrombin (Homo sapiens, UniProt P00734)) for the entry `N=C(N)c1ccc(CNC(=O)[C@@H]2CCCN2C(=O)[C@H](NCC(=O)O)C2CCCCC2)cc1` 200

Would you kindly repeat that for N=C(N)c1ccc(CNC(=O)[C@@H]2C[C@@H]3CCCC[C@@H]3N2C(=O)[C@@H]2NCC[C@@H]3CCCC[C@@H]32)cc1 (relative stereo) ? 38

Would you kindly repeat that for N=C(N)NCCCCCNC(=O)[C@@H]1CCCN1C(=O)[C@H](N)Cc1ccccc1 [Example 6, D-Phe-Pro-NH(CH2)5 NHC(NH)NH2.HCl] ? 2.3

Would you kindly repeat that for `N=C(N)N1CCC(CCNC(=O)[C@@H]2CCCN2C(=O)[C@@H](CC2CCCCC2)NCC(=O)O)CC1` ? 39

Would you kindly repeat that for N=C(N)c1ccc(CNC(=O)[C@@H]2C[C@@H]3CCCC[C@@H]3N2C(=O)[C@@H](Cc2ccccc2)NCC(=O)O)cc1 (relative stereo) ? 45

---

System: Human plasma
Test: Human plasma anticoagulation, prothrombin time (PT)
Assay type: biochemical
Details: concentration required to double the PT, linear extrapolation
Measured Human Plasma Anticoagulation 2× Clotting time PT accompanies every entry in the list below.
// return numeric value only (unit: ng/mL, not printed)

Dear colleague, I am looking for the recorded Human Plasma Anticoagulation 2× Clotting time PT of the following molecule: `Nc1ccc(CNC(=O)[C@@H]2CCCN2C(=O)[C@@H](CC2CCCCC2)NCC(=O)O)c(F)c1` 650

---

Measured Kass Human Thrombin accompanies every entry in the list below.
Biological target: Human Thrombin (Homo sapiens, UniProt P00734)
Assay: Inhibition of amidase activity of thrombin (Kass)
Type: biochemical
Settings: mean over a range of concentrations; […]
Where a name gives a salt, the structure may show the parent alone.

Example entries begin here.
CCS(=O)(=O)N[C@H](Cc1ccccc1)C(=O)N1CCC[C@H]1C(=O)NCc1cccc(NC(=N)N)c1 [Example 36] = 0.06 × 10^6 (L/mole)
CCOC(=O)N[C@H](Cc1ccccc1)C(=O)N1CCC[C@H]1C(=O)NCCCCNC(=N)N [Example 3, EtOCO-D-Phe-Pro-Agm.HCl] = 2.1 × 10^6 (L/mole)
N=C(N)c1ccc(CNC(=O)[C@@H]2CCCN2C(=O)[C@@H](CC2CCCCC2)NCC(=O)O)c(F)c1 [Example 71] = 1,400 × 10^6 (L/mole)

Let us move to another entry and its Kass Human Thrombin.
Find Kass Human Thrombin (Human Thrombin (Homo sapiens, UniProt P00734)) for the entry N=C(N)Nc1cccc(CNC(=O)[C@@H]2CCCN2C(=O)[C@@H]2NCC[C@@H]3CCCC[C@@H]32)c1 [Example 40] 0.03 × 10^6 (L/mole)

---

Molecular target: factor Xa (Homo sapiens)
Construct: Human factors X, Xa, IXa, XIa, and XIIa are purchased; purchased Enzyme Research Laboratories, South Bend, Ind
Sequence (P00742 235-488 limits assumed): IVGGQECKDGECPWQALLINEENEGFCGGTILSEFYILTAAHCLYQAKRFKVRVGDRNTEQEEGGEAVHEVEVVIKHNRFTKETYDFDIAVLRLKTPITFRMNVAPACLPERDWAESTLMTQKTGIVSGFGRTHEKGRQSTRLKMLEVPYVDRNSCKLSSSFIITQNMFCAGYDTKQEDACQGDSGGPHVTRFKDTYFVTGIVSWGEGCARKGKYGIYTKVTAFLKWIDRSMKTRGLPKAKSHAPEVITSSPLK
Sequence (P00742 41-179 partner limits assumed): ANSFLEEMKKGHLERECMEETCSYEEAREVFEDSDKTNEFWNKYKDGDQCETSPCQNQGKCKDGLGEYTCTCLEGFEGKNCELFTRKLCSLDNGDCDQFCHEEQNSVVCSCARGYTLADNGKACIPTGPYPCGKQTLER
Assay: Kass with factor Xa, chromogenic substrate
Format: biochemical
Conditions: substrate N-Benzoyl-Ile-Glu-Gly-Arg-p-nitroanilide
Structures can show the parent of a compound that is named as a salt.
Measured Kass Xa accompanies every entry in the list below.

O=C(O)CN[C@H](CC1CCCCC1)C(=O)N1CCC[C@H]1C(=O)NCC1=CCNCC1 [Example 58] = < 0.001 × 10^6 (L/mole)
CCS(=O)(=O)N[C@H](Cc1ccccc1)C(=O)N1CCC[C@H]1C(=O)NCCCc1cccc(C(=N)N)c1 [Example 31] = 0.14 × 10^6 (L/mole)
N=C(N)NCCCCCCNC(=O)[C@@H]1CCCN1C(=O)[C@H](N)Cc1ccccc1 [Example 5, D-Phe-Pro-NH(CH2)6 NHC(NH)NH2.HCl] = 0.00039 × 10^6 (L/mole)
CCS(=O)(=O)N[C@H](CC1CCCCC1)C(=O)N1CCC[C@H]1C(=O)NCCCCNC(=N)N [Example 2, EtSO2 -D-Cha-Pro-Agm.HCl] = 0.0092 × 10^6 (L/mole)
N=C(N)c1ccc(CNC(=O)[C@@H]2CCCN2C(=O)[C@@H](CC2CCCCC2)NCCC(=O)O)cc1 [Example 52] = 0.46 × 10^6 (L/mole)
N=C(N)c1ccc(CCCNC(=O)[C@@H]2CCCN2C(=O)[C@@H]2NCC[C@@H]3CCCC[C@@H]32)cc1 [Example 32] = 0.03 × 10^6 (L/mole)

Dear colleague, I am looking for the recorded Kass Xa of the following compound: N=C(N)c1ccc(CNC(=O)[C@@H]2C[C@@H]3CCCC[C@@H]3N2C(=O)[C@@H](Cc2ccccc2)NCC(=O)O)cc1 (relative stereo) [Example 47] 0.04 × 10^6 (L/mole)

---

Measured Kass Xa accompanies every entry in the list below.
Biological target: factor Xa (Homo sapiens)
Construct: Human factors X, Xa, IXa, XIa, and XIIa are purchased; purchased Enzyme Research Laboratories, South Bend, Ind
Experiment: Kass with factor Xa, chromogenic substrate
Assay type: biochemical
Conditions: substrate N-Benzoyl-Ile-Glu-Gly-Arg-p-nitroanilide
Counter-ions that a name gives are not always drawn.

Example entries begin here.
N=C(N)NCCCCNC(=O)[C@@H]1CCCN1C(=O)[C@@H]1NCC[C@H]2CCCC[C@H]21 [Example 61, trihydrochloride] = 0.03 × 10^6 (L/mole)
O=C(O)CN[C@H](CC1CCCCC1)C(=O)N1CCC[C@H]1C(=O)NCCCC1=CCNCC1 [Example 60] = < 0.001 × 10^6 (L/mole)
O=C(O)CN[C@H](CC1CCCCC1)C(=O)N1CCC[C@H]1C(=O)NCCC1=CCNCC1 [Example 59] = < 0.001 × 10^6 (L/mole)
CCS(=O)(=O)N[C@H](Cc1ccccc1)C(=O)N1[C@H](C(=O)NCc2ccc(C(=N)N)cc2)C[C@@H]2CCCC[C@@H]21 (relative stereo) [Example 45] = 1.5 × 10^6 (L/mole)
CCS(=O)(=O)N[C@H](Cc1ccccc1)C(=O)N1CCC[C@H]1C(=O)NCCc1ccc(NC(=N)N)cc1 [Example 35] = < 0.001 × 10^6 (L/mole)

Dear colleague, I am looking for the recorded Kass Xa of the following molecule: CCC(CC)C(=O)N[C@@H](CCS(C)(=O)=O)C(=O)N1CCC[C@H]1C(=O)NCc1ccc(C(=N)N)cc1 [Example 91] 0.007 × 10^6 (L/mole)

Would you kindly repeat that for CCS(=O)(=O)N[C@H](Cc1ccccc1)C(=O)N1CCC[C@H]1C(=O)NCCc1cccc(C(=N)N)c1 [Example 27] ? 0.02 × 10^6 (L/mole)

---

Measured Human Plasma Anticoagulation 2× Clotting time PT accompanies every entry in the list below.
System: Human plasma
Assay: Human plasma anticoagulation, prothrombin time (PT)
Format: biochemical
Conditions: concentration required to double the PT, linear extrapolation
// return numeric value only (unit: ng/mL, not printed)

Example entries begin here.
N=C(N)N1CC=C(CNC(=O)[C@@H]2CCCN2C(=O)[C@@H](CC2CCCCC2)NCC(=O)O)CC1 = 180
N=C(N)c1ccc(CNC(=O)[C@@H]2C[C@@H]3CCCC[C@@H]3N2C(=O)[C@@H](CC2CCCCC2)NCC(=O)O)cc1 (relative stereo) = 130

Let us move to another entry and its Human Plasma Anticoagulation 2× Clotting time PT.
Dear colleague, I am looking for the recorded Human Plasma Anticoagulation 2× Clotting time PT of the following compound: `N=C(N)c1ccc(CNC(=O)[C@@H]2CCCN2C(=O)[C@@H](CC2CCCCC2)NCC(=O)O)c(F)c1` 150

---

Molecular target: t-PA (Homo sapiens, UniProt P00750)
Construct: purchased American Diagnostica, Greenwich, Conn
Sequence (P00750 36-562): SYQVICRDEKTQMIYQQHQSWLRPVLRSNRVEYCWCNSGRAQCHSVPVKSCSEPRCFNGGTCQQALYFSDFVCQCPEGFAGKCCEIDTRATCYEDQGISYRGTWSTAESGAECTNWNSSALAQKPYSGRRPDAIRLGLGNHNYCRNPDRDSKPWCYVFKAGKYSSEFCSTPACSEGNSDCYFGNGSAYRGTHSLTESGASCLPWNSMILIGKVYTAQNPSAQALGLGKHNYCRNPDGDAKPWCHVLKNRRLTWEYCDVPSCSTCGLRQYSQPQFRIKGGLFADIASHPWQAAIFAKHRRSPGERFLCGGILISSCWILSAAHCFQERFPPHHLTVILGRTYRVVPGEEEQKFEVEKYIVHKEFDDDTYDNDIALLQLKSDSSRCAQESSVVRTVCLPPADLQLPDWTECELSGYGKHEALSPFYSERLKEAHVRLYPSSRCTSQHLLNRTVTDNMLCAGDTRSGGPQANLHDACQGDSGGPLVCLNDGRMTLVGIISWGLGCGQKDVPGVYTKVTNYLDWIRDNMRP
Assay: Kass with t-PA, chromogenic substrate
Format: biochemical
Conditions: substrate H-D-Ile-Pro-Arg-p-nitroanilide
From the text: […]
measured.property: Kass t-PA

Dear colleague, I am looking for the recorded Kass t-PA of the following compound: N=C(N)c1ccc(CNC(=O)[C@@H]2C[C@@H]3CCCC[C@@H]3N2C(=O)[C@H]2CCCCN2)cc1 (relative stereo) [Example 20, D-hPro-Ohi-p-NHCH2 C6 H4 C(NH)NH2.3HCl] 0.0077 × 10^6 (L/mole)

---

Measured Human Plasma Anticoagulation 2× Clotting time PT accompanies every entry in the list below.
System: Human plasma
Assay: Human plasma anticoagulation, prothrombin time (PT)
Format: biochemical
Settings: concentration required to double the PT, linear extrapolation
Counter-ions that a name gives are not always drawn.
// return numeric value only (unit: ng/mL, not printed)

N=C(N)c1ccc(CNC(=O)[C@@H]2C[C@@H]3CCCC[C@@H]3N2C(=O)[C@H]2C[C@H]3CCCC[C@H]3CN2)cc1 (relative stereo) = 930
N=C(N)c1ccc(CNC(=O)[C@@H]2C[C@@H]3CCCC[C@@H]3N2C(=O)[C@@H](Cc2ccccc2)NCC(=O)O)cc1 (relative stereo) = 270
N=C(N)NCCCCNC(=O)[C@@H]1CCCN1C(=O)[C@@H]1NCC[C@H]2CCCC[C@H]21 [Example 61, trihydrochloride] = 756
Nc1ccc(CNC(=O)[C@@H]2CCCN2C(=O)[C@@H](CC2CCCCC2)NCC(=O)O)cn1 = 350
Nc1ccc(CNC(=O)[C@@H]2CCCN2C(=O)[C@@H](CC2CCCCC2)NCC(=O)O)cc1F = 890

Dear colleague, I am looking for the recorded Human Plasma Anticoagulation 2× Clotting time PT of the following molecule: `CS(=O)(=O)CC(=O)N[C@H](CC1CCCCC1)C(=O)N1CCC[C@H]1C(=O)NCc1ccc(C(=N)N)cc1` 340

Would you kindly repeat that for N=C(N)c1ccc(CNC(=O)[C@@H]2C[C@@H]3CCCC[C@@H]3N2C(=O)[C@H]2CCCCN2)cc1 (relative stereo) [Example 20, D-hPro-Ohi-p-NHCH2 C6 H4 C(NH)NH2.3HCl] ? 600

Would you kindly repeat that for `N=C(N)c1ccc(CNC(=O)[C@@H]2CCCN2C(=O)[C@@H](CCC2CCCCC2)NCC(=O)O)cc1` ? 200

Would you kindly repeat that for N=C(N)c1ccc(CNC(=O)[C@@H]2CCCN2C(=O)[C@H]2C[C@H]3CCCC[C@H]3CN2)cc1 [Example 19, D-3-Piq-Pro-p-NHCH2 C6 H4 C(NH)NH2.3HCl] ? 540

Would you kindly repeat that for N=C(N)c1ccc(CNC(=O)[C@@H]2CCCN2C(=O)[C@H](N)CC2CCCCC2)cc1 [Example 51, D-Cha-Pro-p-NHCH2 C6 H4 C(NH)NH2.2HCl] ? 110
